Test target: UniProtKB Q15858
Measurement protocol: Nav 1.7 in vitro PatchXpress (PX) assay
Format: cell-based
Give measured pIC50 for each item. Keep answers brief.
Please note pIC50 is a logarithmic value: minus log10 of concentration in mol/L. Answer with that number alone.

Q: Give its pIC50 value. Item: Cc1cc(C(=O)NS(C)(=O)=O)c(F)cc1-c1cnc(Oc2c(C)cc(Cl)cc2Cl)c(Cl)c1
Ans: 7.25

Q: Data request, read-out pIC50, for CS(=O)(=O)NC(=O)c1cc(F)c(-c2cnc(Oc3c(Cl)cc(F)cc3Cl)c(Cl)c2)cc1F
Ans: 7.24

Q: I would be grateful if you could share the reported pIC50 for CS(=O)(=O)NC(=O)c1cc(F)c(-c2cnc(Oc3ccc(Cl)c(Cl)c3)c(Cl)c2)cc1F .
Ans: 7.21

Q: Any idea what pIC50 was measured for Cc1cc(C(=O)NS(C)(=O)=O)c(F)cc1-c1cnc(Oc2ccc(C(F)(F)F)c(F)c2)c(Cl)c1 ?
Ans: 6.91

Q: # lookup: pIC50 of Cc1cc(C(=O)NS(C)(=O)=O)c(F)cc1-c1cnc(O[C@@H](c2ccccc2)C(F)(F)F)c(Cl)c1
Ans: 7.03

Q: pIC50 for Cc1cccc(Oc2ncc(-c3cc(F)c(C(=O)NS(C)(=O)=O)cc3C)cc2Cl)c1 ?
Ans: 6.97

Q: Reported pIC50, molecule COc1cc(C(=O)NS(C)(=O)=O)ccc1-c1cnc(Oc2cc(Cl)cc(OC(F)(F)F)c2)c(Cl)c1 : ____
Ans: 7.30

====

Test target: human Nav1.7 (Homo sapiens (Human), UniProt Q15858)
Sequence (Q15858 whole entry): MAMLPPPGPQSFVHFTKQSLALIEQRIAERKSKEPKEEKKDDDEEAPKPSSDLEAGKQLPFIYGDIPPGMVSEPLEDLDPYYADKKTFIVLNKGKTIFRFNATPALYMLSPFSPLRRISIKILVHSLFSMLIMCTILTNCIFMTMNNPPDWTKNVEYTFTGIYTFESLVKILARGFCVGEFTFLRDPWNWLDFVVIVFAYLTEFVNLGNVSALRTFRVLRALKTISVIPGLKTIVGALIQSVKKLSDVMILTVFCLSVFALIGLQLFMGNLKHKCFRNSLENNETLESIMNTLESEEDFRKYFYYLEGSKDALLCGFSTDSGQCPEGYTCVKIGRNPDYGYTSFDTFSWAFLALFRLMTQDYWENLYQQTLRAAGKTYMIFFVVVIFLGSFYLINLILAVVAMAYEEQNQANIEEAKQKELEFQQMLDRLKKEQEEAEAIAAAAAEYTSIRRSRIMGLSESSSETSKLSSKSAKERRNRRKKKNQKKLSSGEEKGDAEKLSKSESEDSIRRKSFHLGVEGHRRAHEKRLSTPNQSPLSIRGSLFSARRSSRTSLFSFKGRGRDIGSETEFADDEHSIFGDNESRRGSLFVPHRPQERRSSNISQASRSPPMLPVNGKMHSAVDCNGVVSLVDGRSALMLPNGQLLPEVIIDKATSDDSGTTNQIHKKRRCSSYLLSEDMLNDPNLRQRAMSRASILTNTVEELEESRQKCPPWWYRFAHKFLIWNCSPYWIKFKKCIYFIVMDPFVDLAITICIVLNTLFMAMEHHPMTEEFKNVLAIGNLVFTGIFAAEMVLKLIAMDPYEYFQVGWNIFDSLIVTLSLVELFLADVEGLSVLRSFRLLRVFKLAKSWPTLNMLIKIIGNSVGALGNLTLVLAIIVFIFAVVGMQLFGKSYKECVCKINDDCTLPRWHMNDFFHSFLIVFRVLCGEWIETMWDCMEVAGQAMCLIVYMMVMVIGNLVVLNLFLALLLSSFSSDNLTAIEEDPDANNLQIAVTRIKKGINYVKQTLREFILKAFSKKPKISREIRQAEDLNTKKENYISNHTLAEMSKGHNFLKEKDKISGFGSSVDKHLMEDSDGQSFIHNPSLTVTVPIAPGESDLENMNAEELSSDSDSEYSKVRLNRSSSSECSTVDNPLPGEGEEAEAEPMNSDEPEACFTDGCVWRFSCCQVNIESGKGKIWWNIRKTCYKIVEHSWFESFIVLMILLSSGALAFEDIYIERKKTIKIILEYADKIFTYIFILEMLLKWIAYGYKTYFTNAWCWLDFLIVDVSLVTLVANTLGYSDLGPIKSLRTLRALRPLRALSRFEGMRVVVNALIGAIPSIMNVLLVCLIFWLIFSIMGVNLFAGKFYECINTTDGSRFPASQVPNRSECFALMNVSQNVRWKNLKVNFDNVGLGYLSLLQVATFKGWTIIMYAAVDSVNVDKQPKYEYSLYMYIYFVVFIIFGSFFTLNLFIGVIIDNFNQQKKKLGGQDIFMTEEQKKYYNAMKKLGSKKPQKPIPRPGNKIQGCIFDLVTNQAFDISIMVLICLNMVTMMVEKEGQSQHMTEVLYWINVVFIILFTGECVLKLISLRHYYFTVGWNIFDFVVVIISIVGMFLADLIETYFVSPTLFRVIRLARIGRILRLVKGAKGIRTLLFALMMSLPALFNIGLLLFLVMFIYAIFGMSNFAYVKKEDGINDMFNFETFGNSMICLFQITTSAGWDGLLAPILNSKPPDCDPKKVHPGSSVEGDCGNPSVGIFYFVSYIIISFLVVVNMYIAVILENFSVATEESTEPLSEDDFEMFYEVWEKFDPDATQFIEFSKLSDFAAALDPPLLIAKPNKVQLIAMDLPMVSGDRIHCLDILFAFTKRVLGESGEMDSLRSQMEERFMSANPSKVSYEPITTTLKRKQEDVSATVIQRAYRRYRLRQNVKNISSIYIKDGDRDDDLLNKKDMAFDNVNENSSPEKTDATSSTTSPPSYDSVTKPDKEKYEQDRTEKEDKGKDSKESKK
Measurement protocol: Nav 1.7 in vitro PatchXpress (PX) assay
Format: cell-based
Would you kindly list pIC50 for each of these compounds?
The read-out pIC50 is expressed as -log10 of concentration in moles per litre.

Q: GET /values?readout=pIC50&system=human Nav1.7 (Homo sapiens (Human), UniProt Q15858)&item= COc1cc(C(=O)NS(C)(=O)=O)ccc1-c1cnc(Oc2cccc(Cl)c2C)c(Cl)c1
Ans: 7.31

Q: pIC50 of COc1cc(C(=O)NS(C)(=O)=O)ccc1-c1cnc(Oc2cc(Cl)ccc2C)c(Cl)c1 on human Nav1.7 (Homo sapiens (Human), UniProt Q15858)?
Ans: 7.26

Q: Give recorded pIC50 with human Nav1.7 (Homo sapiens (Human), UniProt Q15858) for the following compound: COc1cc(C(=O)NS(C)(=O)=O)ccc1-c1cnc(Oc2ccc(Cl)cc2)c(Cl)c1
Ans: 7.03

Q: Hello, I am looking for reported pIC50 with human Nav1.7 (Homo sapiens (Human), UniProt Q15858) for Cc1cc(C(=O)NS(C)(=O)=O)c(F)cc1-c1cnc(Oc2ccc(F)cc2C(F)(F)F)c(Cl)c1 . Could you help?
Ans: 7.13

Q: // map Cc1cc(C(=O)NS(C)(=O)=O)c(F)cc1-c1cnc(Oc2c(Cl)cccc2Cl)c(Cl)c1 to recorded pIC50 (system: human Nav1.7 (Homo sapiens (Human), UniProt Q15858))
Ans: 7.16

Q: Give pIC50 (human Nav1.7 (Homo sapiens (Human), UniProt Q15858)) of the following compound: COc1cc(C(=O)NS(C)(=O)=O)ccc1-c1cnc(Oc2ccc(Cl)c(Cl)c2)c(C#N)c1
Ans: 7.22

Q: Can you look up pIC50 on human Nav1.7 (Homo sapiens (Human), UniProt Q15858) for Cc1cc(C(=O)NS(C)(=O)=O)c(F)cc1-c1cnc(Oc2c(Cl)cc(F)cc2Cl)c(Cl)c1 ?
Ans: 7.08

Q: What pIC50 appears in the records for this compound with human Nav1.7 (Homo sapiens (Human), UniProt Q15858)? COc1cc(C(=O)NS(C)(=O)=O)ccc1-c1cnc(Oc2cc(F)ccc2F)c(Cl)c1
Ans: 7.00

Q: Param readout= pIC50; system= human Nav1.7 (Homo sapiens (Human), UniProt Q15858); entry= Cc1ccc(Cl)cc1Oc1ncc(-c2cc(F)c(C(=O)NS(C)(=O)=O)cc2C)cc1Cl ; returns value.
Ans: 7.15

Q: Under human Nav1.7 (Homo sapiens (Human), UniProt Q15858): pIC50 value of Cc1cc(C(=O)NS(C)(=O)=O)c(F)cc1-c1cnc(Oc2ccc(F)cc2F)c(Cl)c1 ?
Ans: 6.84

Q: Please tell me: pIC50 of CS(=O)(=O)NC(=O)c1cc(Cl)c(-c2cnc(Oc3cc(F)ccc3Cl)c(Cl)c2)cc1F , system human Nav1.7 (Homo sapiens (Human), UniProt Q15858)?
Ans: 7.09

Q: Form field - read-out: pIC50; system: human Nav1.7 (Homo sapiens (Human), UniProt Q15858); submitted item: Cc1cc(C(=O)NS(C)(=O)=O)c(F)cc1-c1cnc(O[C@@H]2CCCC(C)(C)C2)c(Cl)c1
Ans: 7.12

Q: Missing value: pIC50, human Nav1.7 (Homo sapiens (Human), UniProt Q15858), entry Cc1ccc(Cl)c(Oc2ncc(-c3ccc(C(=O)NS(C)(=O)=O)cc3OC(F)F)cc2Cl)c1 . Fill in?
Ans: 7.17

Q: Which measured pIC50 belongs to Cc1cc(C(=O)NS(C)(=O)=O)c(F)cc1-c1cnc(O[C@](C)(c2ccccc2)C(F)(F)F)c(Cl)c1 , tested on human Nav1.7 (Homo sapiens (Human), UniProt Q15858)?
Ans: 7.09

Q: Lab note: need pIC50 with human Nav1.7 (Homo sapiens (Human), UniProt Q15858) for entry Cc1cc(C(=O)NS(C)(=O)=O)c(F)cc1-c1cnc(OCCC(C)C)c(Cl)c1 , please look it up.
Ans: 7.06

Q: Requested read-out pIC50, target or system human Nav1.7 (Homo sapiens (Human), UniProt Q15858), entry COc1ncc(Oc2ncc(-c3ccc(C(=O)NS(C)(=O)=O)cc3OC3COC3)cc2Cl)cc1Cl
Ans: 7.00
